Test: Drug uptake in tumor of ovariectomized nu/nu mouse implanted with human MCF7 cells at 10 mg/kg, sc administered once daily for 22 days measured post last dose by HPLC-MS/MS analysis
Assay type: ADME, organism-based, Neoplasm
Settings: female, read-out: Drug uptake

chemical-smiles	concentration at 528 h
O=C(/C=C/c1cccc(S(=O)(=O)Nc2ccccc2)c1)NO	23.4 ng/g

---

Molecular target: Histone deacetylase 8 (Homo sapiens)
Sequence (Q9BY41 whole entry): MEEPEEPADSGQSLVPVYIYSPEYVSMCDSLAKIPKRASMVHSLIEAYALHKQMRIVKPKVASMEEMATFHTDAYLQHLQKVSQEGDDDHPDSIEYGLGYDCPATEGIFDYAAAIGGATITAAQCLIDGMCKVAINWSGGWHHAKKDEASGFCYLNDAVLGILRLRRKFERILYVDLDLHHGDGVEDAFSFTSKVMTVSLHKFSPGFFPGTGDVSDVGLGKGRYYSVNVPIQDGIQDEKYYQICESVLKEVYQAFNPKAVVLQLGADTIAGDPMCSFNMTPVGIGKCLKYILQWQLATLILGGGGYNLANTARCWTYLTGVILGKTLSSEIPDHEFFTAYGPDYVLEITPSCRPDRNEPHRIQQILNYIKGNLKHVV
Assay: Inhibition of human HDAC8 using RHK(Ac)K(Ac)AMC as substrate
pEC50: −log10 of the molar value.
measurement-kind: pEC50

chemical-smiles	quantitative-result
CC1(C)OB(c2ccc(CONC(=O)/C=C/c3cccc(S(=O)(=O)Nc4ccccc4)c3)cc2)OC1(C)C	3.47
